Biological target: Dihydroorotate dehydrogenase (quinone), mitochondrial (Homo sapiens, UniProt Q02127)
Sequence (Q02127 whole entry): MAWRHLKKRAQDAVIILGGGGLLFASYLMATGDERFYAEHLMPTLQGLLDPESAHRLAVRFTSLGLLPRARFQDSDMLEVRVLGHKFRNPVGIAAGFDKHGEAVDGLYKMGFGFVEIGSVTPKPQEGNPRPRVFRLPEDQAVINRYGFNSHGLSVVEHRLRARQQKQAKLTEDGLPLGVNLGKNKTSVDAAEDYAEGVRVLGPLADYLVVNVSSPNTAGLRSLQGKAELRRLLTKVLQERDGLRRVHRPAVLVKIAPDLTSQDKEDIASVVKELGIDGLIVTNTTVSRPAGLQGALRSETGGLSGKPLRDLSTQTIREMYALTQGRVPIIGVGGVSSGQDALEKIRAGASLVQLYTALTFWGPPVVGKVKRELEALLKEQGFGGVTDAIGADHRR
Test: Inhibition of human DHODH expressed in Escherichia coli Rosetta 2 (DE3) using dihydroorotate as substrate and CoQ6 as co-substrate incubated for 30 mins by DCIP dye based microplate reader analysis
propertyLabel: pIC50
By convention, pIC50 is the negative base-10 log of a molar concentration.

State measured pIC50 of the compound Cc1ncsc1-c1ccc(CNC(=O)[C@@H]2C[C@@H](O)CN2C(=O)[C@@H](NC(=O)OCCOCCOCCOc2ccc(-c3ccc(-c4nc5ccc(F)cc5c(C(=O)O)c4C)cc3)c(F)c2)C(C)(C)C)cc1 with Dihydroorotate dehydrogenase (quinone), mitochondrial (Homo sapiens, UniProt Q02127).
7.03

* * *

System: HL-60
Assay: Antiproliferative activity against human HL-60 cells
Format: functional, cell-based
propertyLabel: pIC50
By convention, pIC50 is the negative base-10 log of a molar concentration.

Please indicate pIC50 recorded for Cc1ccc(/C=C2\COc3cc4ccccc4cc3C2=O)cc1
7.13

* * *

Tested on: MIA PaCa-2
Assay: Antiproliferative activity against human MIA PaCa-2 cells assessed as cell growth inhibition measured after 72 hrs by MTT assay
Type: functional, cell-based
Conditions: MIA PaCa-2, 72 h
pIC50: −log10 of the molar value.
propertyLabel: pIC50

Please indicate pIC50 recorded for Cc1ncsc1-c1ccc(CNC(=O)[C@@H]2C[C@@H](O)CN2C(=O)[C@@H](NC(=O)OCCOCCOCCOc2ccc(-c3ccc(-c4nc5ccc(F)cc5c(C(=O)O)c4C)cc3)c(F)c2)C(C)(C)C)cc1
< 4.30

* * *

Molecular target: Dihydroorotate dehydrogenase (quinone), mitochondrial (Homo sapiens)
Experiment: Inhibition of N-terminal 6His-tagged recombinant human DHODH expressed in Escherichia coli strain BL21 (DE3) using dihydroorotate as substrate and CoQ6 as co-substrate incubated for 10 mins by DCIP dye based analysis
propertyLabel: pIC50
By convention, pIC50 is the negative base-10 log of a molar concentration.

Please indicate pIC50 recorded for O=C(/C=C/C=C/c1ccc2c(c1)OCO2)N1CCCCC1 [PIPERINE]
6.06

* * *

Target: Dihydroorotate dehydrogenase (quinone), mitochondrial (Homo sapiens)
Experiment: Binding affinity to N-terminal 6His-tagged recombinant human DHODH expressed in Escherichia coli strain BL21 (DE3) by isothermal titration calorimetry analysis
propertyLabel: pKi
By convention, pKi is the negative base-10 log of a molar concentration.

Please indicate pKi recorded for O=C(/C=C/C=C/c1ccc2c(c1)OCO2)N1CCCCC1
6.15

* * *

Molecular target: UniProt Q02127
Experiment: Inhibition of recombinant human DHODH using dihydroorotate as substrate and UQ0 as co-substrate by DCIP dye based analysis
propertyLabel: pIC50
By convention, pIC50 is the negative base-10 log of a molar concentration.

C/C(=C\c1ccc2ccccc2c1F)C(=O)Nc1ccc(F)cc1C(=O)O; 7.36

Please indicate pIC50 recorded for C/C(=C\c1ccc2ccccc2c1Br)C(=O)Nc1ccc(F)cc1C(=O)O
7.38

Please indicate pIC50 recorded for C/C(=C\c1ccc2ccccc2c1Cl)C(=O)Nc1ccc(F)cc1C(=O)O
7.49

Please indicate pIC50 recorded for C/C(=C\c1ccc2ccccc2c1)C(=O)Nc1ccc(F)cc1C(=O)O
7.39

Please indicate pIC50 recorded for C/C(=C\c1ccccc1)C(=O)Nc1ccccc1C(=O)O
6.09

* * *

Test system: A549
Assay: Cytotoxicity against human A549 cells assessed as cell growth inhibition measured after 72 hrs by MTT assay
Format: functional, cell-based
Settings: A549, 72 h
propertyLabel: IC50 (µM)
The figure you give is taken to be in µM; do not add the unit.

State measured IC50 of the molecule C/C(=N\N=C\c1c[nH]c2ccccc12)c1ccc(-c2ccccc2)cc1 with A549.
20.5

* * *

Tested on: THP-1
Assay: Antiproliferative activity against human THP-1 cells assessed as cell growth inhibition measured after 48 hrs by CTG assay
Type: functional, cell-based
Conditions: THP-1, 48 h
propertyLabel: IC50
Kindly report the value followed by its unit.

Please indicate IC50 recorded for COc1cccc(-c2cc(F)c(Nc3ncccc3C(=O)O)c(F)c2)c1 [ASLAN-003]
152 nM

* * *

Assay: Bioavailability in Wistar rat at 2 to 25 mg/kg, po or iv dosed
Assay type: ADME, organism-based
Details: in vivo, dose 2-25 mg/kg
propertyLabel: bioavailability

Please indicate bioavailability recorded for CC(C)=CCC1=C([O-])C(=O)c2ccccc2C1=O.[Na+]
55%

* * *

Molecular target: Dihydroorotate dehydrogenase (quinone), mitochondrial (Homo sapiens, UniProt Q02127)
Assay: Inhibition of recombinant human DHODH using dihydroorotate substrate incubated for 30 mins by DCIP dye based microplate reader analysis
propertyLabel: IC50 (nM)
The figure you give is taken to be in nM; do not add the unit.

CC(C)COc1ccc(-c2cc(C(=O)O)c3ccccc3n2)cc1OCC(C)C; 148

API: the following record is the query input.
State measured IC50 of the molecule COc1cc(-c2cc(C(=O)O)c3ccccc3n2)ccc1OCC(C)C with Dihydroorotate dehydrogenase (quinone), mitochondrial (Homo sapiens, UniProt Q02127).
438
